target.desc: hGLP-1R (Homo sapiens, UniProt P43220)
Sequence (P43220 24-463): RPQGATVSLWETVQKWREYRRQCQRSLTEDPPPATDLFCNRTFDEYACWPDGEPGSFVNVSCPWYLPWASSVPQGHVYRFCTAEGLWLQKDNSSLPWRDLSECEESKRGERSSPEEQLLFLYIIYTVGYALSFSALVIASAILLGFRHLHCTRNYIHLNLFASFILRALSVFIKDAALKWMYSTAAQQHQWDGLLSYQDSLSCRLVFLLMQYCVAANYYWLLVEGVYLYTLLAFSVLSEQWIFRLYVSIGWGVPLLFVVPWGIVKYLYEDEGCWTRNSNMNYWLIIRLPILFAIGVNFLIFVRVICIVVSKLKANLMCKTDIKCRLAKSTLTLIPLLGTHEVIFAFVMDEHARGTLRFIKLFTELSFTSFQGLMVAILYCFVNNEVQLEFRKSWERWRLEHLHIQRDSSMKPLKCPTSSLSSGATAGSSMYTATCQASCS
measurement.description: Functional cAMP activation in the presence of 0.1% casein (no HSA)
Assay type: cell-based
condition.details: in the presence of 0.1% casein (no HSA); geometric mean; read-out: Relative cAMP EC50, hGLP-1R
pEC50: −log10 of the molar value. Starred links: 1 amine or outer side, 2 acyl side, 3 side chain; linkers in the order of their positions; H or OH if unused. Non-standard residues stand in square brackets, D forms with d. Groups on a side chain read outwards from the residue. *: point of attachment. C20 diacid = O=C(O)CCCCCCCCCCCCCCCCCCC(=O)*; C18 diacid = O=C(O)CCCCCCCCCCCCCCCCC(=O)*; γGlu = O=C(O)[C@H](CCC(=O)[*:2])N[*:1]; αMe4Pal = C[C@](N)(Cc1ccncc1)C(=O)O; αMeY = C[C@](N)(Cc1ccc(O)cc1)C(=O)O; 4Pal = N[C@@H](Cc1ccncc1)C(=O)O; αMeL = CC(C)C[C@](C)(N)C(=O)O; Orn = NCCC[C@H](N)C(=O)O; AEEA = NCCOCCOCC(=O)O; Aib = CC(C)(N)C(=O)O

| substance | pEC50 |
| --- | --- |
| H-Y[Aib]QGTFTSDFS[Orn][αMeL]LDKK([AEEA-AEEA-γGlu-C18 diacid])AQ[Aib]AFIEYLLE[Aib]GPSSGEPPPEGS-NH2 [Example 195] | 8.21 |
| H-Y[Aib]QGTFTSD[4Pal]SQ[αMeL]LD[Orn]K([γGlu-γGlu-C18 diacid])AQ[αMe4Pal]AFIE[αMeY]LIE[Aib]GPSSGEPPPSGSEE-NH2 [Example 1093] | 9.02 |
| H-Y[Aib]QGTFTSDYSK[αMeL]LDKK([AEEA-γGlu-C20 diacid])AQQAFVQWLIE[dA]GPSSGEPPPSEG-NH2 [Example 342] | 9.38 |

----------
target.desc: hGLP-1R (Homo sapiens, UniProt P43220)
measurement.description: Functional cAMP activation in the presence of 0.1% casein (no HSA);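 also: intracellular cAMP rise after 30 min at 37 °C read by HTRF, normalized between buffer only (0%) and maximal control ligand (100%), four-parameter variable-slope fit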
Format: cell-based
condition.details: in the presence of 0.1% casein (no HSA); geometric mean; read-out: Relative cAMP EC50, hGLP-1R
Starred links: 1 amine or outer side, 2 acyl side, 3 side chain; linkers in the order of their positions; H or OH if unused. Non-standard residues stand in square brackets, D forms with d. Groups on a side chain read outwards from the residue. No end group written: not given here. *: point of attachment. C20 diacid = O=C(O)CCCCCCCCCCCCCCCCCCC(=O)*; C18 diacid = O=C(O)CCCCCCCCCCCCCCCCC(=O)*; αMePhe(2-F) = C[C@](N)(Cc1ccccc1F)C(=O)O; γGlu = O=C(O)[C@H](CCC(=O)[*:2])N[*:1]; αMe4Pal = C[C@](N)(Cc1ccncc1)C(=O)O; αMeY = C[C@](N)(Cc1ccc(O)cc1)C(=O)O; 4Pal = N[C@@H](Cc1ccncc1)C(=O)O; αMeL = CC(C)C[C@](C)(N)C(=O)O; αMeS = C[C@](N)(CO)C(=O)O; Orn = NCCC[C@H](N)C(=O)O; AEEA = NCCOCCOCC(=O)O; Aib = CC(C)(N)C(=O)O
endpoint: log10(EC50) (log10 of the value in nM)

| substance | log10(EC50) |
| --- | --- |
| H-Y[Aib]QGT[αMePhe(2-F)]TSD[4Pal][αMeS]I[αMeL]LD[Orn]K([AEEA-γGlu-γGlu-C18 diacid])AQ[αMe4Pal]EFI[dE][αMeY]LIEGGPSSGAPPPSGGGE-NH2 [Example 1180] | -0.35 |
| H-Y[Aib]QGTFTSD[4Pal]SQ[αMeL]LD[Orn]K([γGlu-γGlu-C18 diacid])AQ[αMe4Pal]AFIEYLIE[dA]GPSSGEPPPSGS-NH2 [Example 1019] | 0.12 |
| H-Y[Aib]QGTFTSDFS[Orn][αMeL]LDKK([AEEA-γGlu-C18 diacid])AQ[Aib]AFIEYLIE[Aib]GESSGAPPPSGS-NH2 [Example 218] | -0.12 |
| H-Y[Aib]QGTFTSD[4Pal]SK[αMeL]LDKK([AEEA-γGlu-C18 diacid])AQ[Aib]AFIEYLIE[Aib]GPSSGAPPPSGSE-NH2 [Example 901] | 0.10 |
| H-Y[Aib]QGTFTSD[4Pal]SQ[αMeL]LD[Orn]K([dE-γGlu-C18 diacid])AQ[αMe4Pal]AFIE[αMeY]LIE[Aib]GPSSGEPPPSGSEE-NH2 [Example 1103] | 0.03 |
| H-Y[Aib]QGTFTSD[4Pal]SQ[αMeL]LDKK([AEEA-γGlu-C18 diacid])AQ[αMe4Pal]QFIE[αMeY]LIEGGPSSGAPPPSGS-NH2 [Example 855] | -0.04 |
| H-Y[Aib]QGTFTSD[4Pal]S[Orn][αMeL]LDKK([γGlu-γGlu-C18 diacid])AQ[αMe4Pal]AFIE[αMeY]LIAGGPSSGAPPPEGS-NH2 [Example 1015] | 0.00 |
| H-Y[Aib]QGTFTSD[4Pal]SR[αMeL]LDKK([AEEA-γGlu-C18 diacid])AQ[Aib]AFIEYLLE[Aib]GPSSGAPPPSGE-NH2 [Example 114] | 0.80 |
| H-Y[Aib]QGTFTSD[4Pal]S[Orn][αMeL]LDKK([AEEA-AEEA-γGlu-C18 diacid])AQ[αMe4Pal]AFIEYLIE[Aib]GPSSGAPPPSGS-NH2 [Example 814] | 0.58 |
| Y[Aib]QGTFTSD[4Pal]SQ[αMeL]LDKK([γGlu-γGlu-C18 diacid])AQ[αMe4Pal]AFIE[αMe4Pal]LIE[Aib]GPSSGAPPPSGTE-NH2 [Example 1118] | 0.73 |
| H-Y[Aib]QGTFTSDFSK[αMeL]LDKK([γGlu-γGlu-C18 diacid])AQ[Aib]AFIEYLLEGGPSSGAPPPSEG-NH2 [Example 58] | 0.47 |
| H-Y[Aib]QGTFTSDFS[Orn][αMeL]LDKK([AEEA-γGlu-C18 diacid])AQ[Aib]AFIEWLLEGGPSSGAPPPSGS-NH2 [Example 168] | 0.39 |
| H-Y[Aib]QGTFTSDFS[Orn][αMeL]LDKK([AEEA-AEEA-γGlu-C18 diacid])AQ[Aib]AFIEYLLE[dA]GPSSGEPPPSGT-NH2 [Example 156] | 0.53 |
| Y[Aib]QGTFTSD[4Pal]SQ[αMeL]LDKK([AEEA-γGlu-C18 diacid])AQ[Aib]AFIEYLLE[dA]GPSSGAPPPSG[4Pal]-NH2 [Example 822] | 0.40 |
| H-Y[Aib]QGT[αMePhe(2-F)]TSD[4Pal][αMeS]I[αMeL]LD[Orn]K([γGlu-γGlu-C18 diacid])AQ[αMe4Pal]EFI[dE][αMeY]LIEGGPSSGEPPPSGE-NH2 [Example 1151] | -0.58 |
| H-Y[Aib]QGTFTSD[4Pal]SQ[αMeL]LDKK([AEEA-γGlu-C18 diacid])AQ[αMe4Pal]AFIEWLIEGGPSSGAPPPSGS-NH2 [Example 830] | -0.10 |
| H-Y[Aib]QGTFTSD[4Pal]S[Orn][αMeL]LD[Orn]K([γGlu-γGlu-C18 diacid])AQ[αMe4Pal]AFIEYLIE[Aib]GPSSGAPPPSGS-NH2 [Example 939] | 0.44 |
| H-Y[Aib]QGTFTSDFS[Orn][αMeL]LDKK([AEEA-γGlu-C18 diacid])AQ[αMe4Pal]AFIEYLIE[Aib]GPSSGAPPPSGS-NH2 [Example 811] | 0.17 |
| H-Y[Aib]QGTFTSDFS[Orn][αMeL]LDKK([AEEA-γGlu-C18 diacid])AQ[Aib]AFIEYLLEGGESSGAPPPGGS-NH2 [Example 161] | 0.72 |
| H-Y[Aib]QGTFTSD[4Pal]S[Orn][αMeL]LD[Orn]K([γGlu-γGlu-γGlu-C18 diacid])AQ[αMe4Pal]AFIEYLIE[Aib]GPSSGAPPPSGSE-NH2 [Example 943] | 0.55 |
| H-Y[Aib]QGTFTSDFSK[αMeL]LDKK([AEEA-γGlu-C20 diacid])AQ[Aib]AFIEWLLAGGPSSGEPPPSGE-NH2 [Example 21] | 0.43 |
| H-Y[Aib]QGTFTSD[4Pal]SQ[αMeL]LDKK([AEEA-γGlu-C18 diacid])AQ[αMe4Pal]AFIEYLIE[Aib]GPSSGAPPPSGSEE-NH2 [Example 897] | 0.52 |

Value source: patent US20240270821A1
